Tested on: THRa homodimer (NR concentration 90 nM)
EXPERIMENT NOTES: PBM binding z-score (relative to random genomic background probes); higher = stronger binding; sequences stand for … in GC…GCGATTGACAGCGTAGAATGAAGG
The class of a record is decided solely by its measured PBM binding z-score; consult low (below 0.7), mid (0.7 to below 2), high (2 or more)

Solved cases (3 shown):
| SEQUENCE TEXT | CLASS LABEL |
| --- | --- |
| AATACAGGATCACTAGGCCAGAGTAGGTACGAAT | low |
| CGTCAAAGTTCAAGTTAACGTAACAGAAAGCAGC | low |
| CGTCCAAGGTCAACGCTAGGTCAGTGAAAGCATT | high |

// bin(item) where item = `GCTGCTAGGTCAGGTTGGTCGGCTAACGGGTACG`
low

// bin(item) where item = `ATATGTAGGTCAGGGTCATTCAGAAAGTAGGGAA`
high

// bin(item) where item = `CCAACTAGGTCACCAGGACAGTGAAGAGGTTGGA`
mid

// bin(item) where item = `CTCGAAAGGTCGTGCTTAGGTGAGTATACCAAAC`
mid

// bin(item) where item = `ATATGTAGCTTAGGGTCATTCAGAAAGTAGGGAA`
high

// bin(item) where item = `CCTACTGGGCCAAAAATGTCATTGATGCCGATAA`
low
